Measured target: GPR119 (Homo sapiens, UniProt Q8TDV5)
Construct: expressed in transfected cells; host or cells: Flp-In-T-REx 293
Sequence (Q8TDV5 whole entry): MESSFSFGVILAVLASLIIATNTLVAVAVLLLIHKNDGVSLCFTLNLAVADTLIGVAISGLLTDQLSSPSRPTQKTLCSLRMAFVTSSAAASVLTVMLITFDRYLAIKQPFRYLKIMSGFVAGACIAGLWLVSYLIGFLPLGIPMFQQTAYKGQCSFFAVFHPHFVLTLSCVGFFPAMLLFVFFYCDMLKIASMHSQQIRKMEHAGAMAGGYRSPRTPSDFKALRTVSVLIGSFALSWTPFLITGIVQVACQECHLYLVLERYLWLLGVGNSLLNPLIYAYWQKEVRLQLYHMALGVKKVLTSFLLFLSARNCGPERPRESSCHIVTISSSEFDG
Test summary: Human Tet-Inducible cAMP Assay (hEC50, Table 1)
Format: cell-based
Parameters: scale not given here
Recorded conditions: IA as printed beside hEC50 (not defined in the text)
Would you mind telling me the reported IA of each entry?
Keep the answer to the number alone.

Enquiry: Identify measured IA associated with CCc1cnc(N2CCC(n3nnc4c(Nc5ccc(S(C)(=O)=O)cc5F)ncnc43)CC2)nc1
Return: 0.56

Enquiry: Provide one value: measured IA of Cc1ncccc1Oc1ncnc2c1cnn2C1CCN(C(=O)OC(C)C)CC1.Cl
Return: 0.17

Enquiry: Specify measured IA for CC(C)(C)OC(=O)N1CCC(n2nnc3c(Nc4ccc(S(C)(=O)=O)cc4F)nccc32)CC1 .
Return: 0.55

Enquiry: Supply recorded IA for CC(C)OC(=O)N1CCC(n2nnc3c(Nc4ccc(S(C)(=O)=O)cc4Cl)ncnc32)CC1 here.
Return: 0.68

Enquiry: # return recorded IA for input CC(C)OC(=O)N1CCC(n2cnc3c(Nc4ccc(S(C)(=O)=O)cc4F)ncnc32)CC1
Return: 0.79

Enquiry: Please supply the value of reported IA for the item CS(=O)(=O)c1ccc(Nc2ncnc3c2ncn3C2CCN(c3ncccn3)CC2)c(F)c1
Return: 0.81

Enquiry: # return recorded IA for entry CC(C)(C)OC(=O)N1CCC(n2cnc3c(Nc4ccc(C#N)cc4F)ncnc32)CC1
Return: 0.70

Enquiry: # return recorded IA for entry CC(C)OC(=O)N1CCC(n2nnc3c(Nc4ccc(S(C)(=O)=O)cc4F)ncnc32)CC1
Return: 0.86

Enquiry: Give the measured IA for CC(C)OC(=O)N1CCC(n2ncc3c(Oc4cccnc4C#N)ncnc32)CC1
Return: 0.13

Enquiry: Consider the molecule CS(=O)(=O)c1ccc(Nc2ncnc3c2nnn3C2CCN(c3ncccn3)CC2)c(F)c1 and give its recorded IA.
Return: 0.67

Enquiry: Return IA for the following molecule: CC(C)(C)OC(=O)N1CCC(n2nnc3c(Oc4ccc(S(C)(=O)=O)cc4)nccc32)CC1
Return: 0.29

Enquiry: Name the recorded IA of the item CC(C)OC(=O)N1CCC(n2ncc3c(Nc4ccc(S(C)(=O)=O)cc4F)ncnc32)CC1 in your answer.
Return: 0.69

Enquiry: Tell us which IA value is on record for CS(=O)(=O)c1ccc(Nc2ncnc3c2cnn3C2CCN(C(=O)OCc3ccccc3)CC2)c(F)c1
Return: 0.47

Enquiry: For CCc1cnc(N2CCC(n3ncc4c(Nc5ccc(S(C)(=O)=O)cc5F)ncnc43)CC2)nc1 , write its IA.
Return: 0.94

Enquiry: Consider the molecule CS(=O)(=O)c1ccc(Nc2ncnc3c2cnn3C2CCN(c3ncccn3)CC2)c(F)c1 and give its recorded IA.
Return: 0.76

Enquiry: Dear colleague, please send me the reported IA for CCCc1cnc(N2CCC(n3ncc4c(Nc5ccc(S(C)(=O)=O)cc5F)ncnc43)CC2)nc1 when you can.
Return: 1.11

Enquiry: Query IA for CC(C)(C)OC(=O)N1CCC(n2nnc3c(Nc4ccc(C#N)cc4Cl)nccc32)CC1
Return: 0.27

Enquiry: Supply IA value. Item: Cc1ncccc1Oc1ncnc2c1cnn2C1CCN(C(=O)OCc2ccccc2)CC1.Cl
Return: 0.31

Where do the numbers come from? From patent US8476283B2.
